- experimentalTarget: T1, P26 (human, UniProt P02771 381-609, limits assumed)
- T1 construct: also called AFP p26
- T1 sequence: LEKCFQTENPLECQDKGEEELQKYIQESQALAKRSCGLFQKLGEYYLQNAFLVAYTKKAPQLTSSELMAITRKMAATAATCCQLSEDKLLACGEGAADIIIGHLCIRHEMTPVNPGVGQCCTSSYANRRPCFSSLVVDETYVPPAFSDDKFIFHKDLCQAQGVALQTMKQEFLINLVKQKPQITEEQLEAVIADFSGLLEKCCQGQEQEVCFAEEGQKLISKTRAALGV
- methodDescription: ELISA, format not described
- Design: unit not given here
Please assign 0.0 whenever ELISA_avg is at or above 20, and 1.0 whenever it is below.

Reference set (2 entries):
D domain SEQ ID NO: 905 (designed binder) MGSWYEFSHRLEAIEDRLFALGGSEAELAAFEKEIAAFESELQAYKGKGNPEVEPLREHAAYIRHWLQAYRHN :: 0.0
D domain SEQ ID NO: 939 (designed binder) MGSWVLFKQELAWIKWLLEALGGSEAELAAFEEQIARFEHDLQKYKGKGNPEVEALRKEAAAIRDELQAYRHN :: 0.0

is_below(ELISA_avg, 20) for D domain SEQ ID NO: 945 (designed binder) MGSWKLFKYELAWIKWRLEALGGSEAELADFEASIAQFEKYLQTYKGKGNPEVEALRKEAAAIRDELQAYRHN ? 0.0

is_below(ELISA_avg, 20) for D domain SEQ ID NO: 969 (designed binder) MGSWVLFKQDLAMIKQRLEALGGSEAELAMFEYDIAWFEHMLQYYKGKGNPEVEALRKEAAAIRDELQAYRHN ? 0.0

is_below(ELISA_avg, 20) for D domain SEQ ID NO: 951 (designed binder) MGSWYFFKSRLAYIKVYLEALGGSEAELAGFEWEIAHFEEWLQRYKGKGNPEVEALRKEAAAIRDELQAYRHN ? 0.0

is_below(ELISA_avg, 20) for D domain SEQ ID NO: 940 (designed binder) MGSWVLFKQELAWIKWYLEALGGSEAELAAFEWEIAAFEQRLQIYKGKGNPEVEALRKEAAAIRDELQAYRHN ? 0.0

is_below(ELISA_avg, 20) for D domain SEQ ID NO: 967 (designed binder) MGSWYTFKGSLAEIKNRLEALGGSEAELAMFESDIAWFEFMLQFYKGKGNPEVEALRKEAAAIRDELQAYRHN ? 0.0

is_below(ELISA_avg, 20) for D domain SEQ ID NO: 887 (designed binder) MGSWTEFWHRLEAIDSRLWALGGSEAELAAFEKEIAAFESELQAYKGKGNPEVESLREHAAHIRVWLQAYRHN ? 1.0
